system: IGROV1 ovarian; assay: NCI-60 one-dose screen, 48 h; conditions: 10 µM unless noted
This is part of a sample that, as a whole, favours compounds with a hit. Of some 83,000 tested, about 20% had one in any assay. The source made the active and inactive calls. The calls were made as follows: active = growth percent below 10; inactive = the rest.
Pick one and only one: True = active, False = inactive

Query :: Returns: the outcome recorded for COc1ccc2c(c1)[nH]c(=O)c1c3cc(C)c(C)cc3cn21 in this assay.
Result :: True

Query :: Give the logged outcome of this assay for the following compound: COc1cc(/C=C/C(=O)N2CCN(C(=O)/C=C/c3cc(OC)c(OC)c(OC)c3)CC2)cc(OC)c1OC
Result :: False

Query :: Assay outcome for COc1ccc(/C=C/c2c(C(C)=O)c(C)nc3ccccc23)cc1 : what was it?
Result :: False

Query :: Look up the recorded call for C=CCn1cc(-c2nc3ccccc3s2)c2cc(-c3ccc4c5c(cccc35)C(=O)N(CCN3CCNCC3)C4=O)ccc21 in this test.
Result :: False

Query :: # outcome recorded in this test, key = Clc1ccc(-c2nc3ccccc3s2)cc1Cl
Result :: False

Query :: Short answer needed: outcome of this test for Cc1ccc(Cc2c(C=O)nc(N)[nH]c2=O)c2ccccc12 ?
Result :: False

Query :: Lab log entry: O=C(O)C1CCCN1 (stereo unspecified) — outcome as called in the assay?
Result :: False

Query :: Would you mind telling me which call this test gave O=C(c1ccccc1)C1OC1c1ccc([N+](=O)[O-])cc1 (stereo unspecified) ?
Result :: False

Query :: Dear colleague, could you share the recorded outcome for Clc1cccc(-c2cc(-c3ccc4c(c3)OCCO4)[nH]n2)c1 when you have a moment?
Result :: False

Query :: What was the test verdict on OCCCCCCNc1ncnc2cc(Cl)ccc12 ?
Result :: False

Query :: Answer briefly: the call reported for O=[N+]([O-])c1cc(Cl)c2[nH]c3c(Cl)cc([N+](=O)[O-])cc3c2c1 in this assay.
Result :: True
